For each record, write down the corresponding % inhibition at 100 µM.
- TESTED TARGET: T1, Chymase, from human skin (human, UniProt P23946 22-247)
- T1 sequence (looked up): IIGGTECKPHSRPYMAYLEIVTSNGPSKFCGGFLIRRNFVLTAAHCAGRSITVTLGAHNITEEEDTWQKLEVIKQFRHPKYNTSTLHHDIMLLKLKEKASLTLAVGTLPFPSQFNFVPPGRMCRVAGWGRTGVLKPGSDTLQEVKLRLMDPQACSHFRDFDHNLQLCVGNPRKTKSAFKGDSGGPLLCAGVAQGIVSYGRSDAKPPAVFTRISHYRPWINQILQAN
- ASSAY METHOD TEXT: cell-based or functional assay
Hey, just the number and the unit after it is fine.

Input line: Quick one: % inhibition at 100 µM for ICTXSDPPICR (HELM PEPTIDE1{I.C.T.[Nle].S.D.P.P.I.C.R.[dP].P}$PEPTIDE1,PEPTIDE1,2:R3-10:R3|PEPTIDE1,PEPTIDE1,1:R1-13:R2$$$V2.0; SMILES CCCC[C@@H]1NC(=O)[C@H]([C@@H](C)O)NC(=O)[C@@H]2CSSC[C@H](NC(=O)[C@H]([C@@H](C)CC)NC(=O)[C@@H]3CCCN3C(=O)[C@@H]3CCCN3C(=O)[C@H](CC(=O)O)NC(=O)[C@H](CO)NC1=O)C(=O)N[C@@H](CCCNC(=N)N)C(=O)N1CCC[C@@H]1C(=O)N1CCC[C@H]1C(=O)N[C@@H]([C@@H](C)CC)C(=O)N2) [Example 22] ?
Output line: 98.8%

Input line: Note, next up: ICTKSDPPQCR (HELM PEPTIDE1{I.C.T.K.S.D.P.P.Q.C.R.[dP].P}$PEPTIDE1,PEPTIDE1,2:R3-10:R3|PEPTIDE1,PEPTIDE1,1:R1-13:R2$$$V2.0; SMILES CC[C@H](C)[C@@H]1NC(=O)[C@@H]2CCCN2C(=O)[C@H]2CCCN2C(=O)[C@H](CCCNC(=N)N)NC(=O)[C@@H]2CSSC[C@H](NC1=O)C(=O)N[C@@H]([C@@H](C)O)C(=O)N[C@@H](CCCCN)C(=O)N[C@@H](CO)C(=O)N[C@@H](CC(=O)O)C(=O)N1CCC[C@H]1C(=O)N1CCC[C@H]1C(=O)N[C@@H](CCC(N)=O)C(=O)N2) [Example 17]
Output line: 27.6%
